Can you tell me Activity for the items I'm about to list?
system: Botrytis cinerea; experiment: Antifungal activity against Benzimidalzole-sensitive Botryotinia fuckeliana isolate Bc-9 infected compound-treated kidney bean leaves at 200 ppm after 4 days; format: functional
State the value, then name its unit.

Field request: Activity | item: "C#CCOc1cc(N/C=N/OC)cc(Cl)c1OCC#C"
7%

Field request: Activity | item: "C#CCOc1c(Cl)cc(N/C=N/OC)cc1Cl"
8%

Field request: Activity | item: COC(=O)NC(=S)Nc1ccccc1NC(=S)NC(=O)OC [THIOPHANATE METHYL]
96%

Field request: Activity | item: C=CC1(C)OC(=O)N(c2cc(Cl)cc(Cl)c2)C1=O (centres undefined) [VINCLOZOLIN]
100%

###

Can you tell me Activity for the items I'm about to list?
tested on: Botrytis cinerea; test: Antifungal activity against Benzimidalzole-resistant Botryotinia fuckeliana isolate Bc-44 infected compound-treated kidney bean leaves at 12.5 ppm after 4 days; format: functional
Response body: numeric value in %, unit text excluded.

Field request: Activity | item: COC(=O)NC(=S)Nc1ccccc1NC(=S)NC(=O)OC [THIOPHANATE METHYL]
0

Field request: Activity | item: C=CC1(C)OC(=O)N(c2cc(Cl)cc(Cl)c2)C1=O (centres undefined)
77

Field request: Activity | item: "C#CCOc1c(Cl)cc(N/C=N/OC)cc1Cl"
100

Field request: Activity | item: "C#CCOc1cc(N/C=N/OC)cc(Cl)c1OCC#C"
100
